- Test system: HeLa cells
- measurementDescription: Flow cytometry detection for cell apoptosis (Annexin V/PI)
- Format: cell-based, human
- setupConditions: 12 μM, 72 h, Annexin V/PI, single samples
- Method: Cell-apoptosis analysis was carried out by flow cytometry using the Annexin V/PI apoptosis kit (Solarbio, China) according to the manufacturer’s manual. Briefly, HeLa (5 × 10^4/well) cells were seeded in 12-well plates for 24 h and then treated with 0.1% DMSO (as control) or various concentrations of compounds 4d, 4k, and 4l for 72 h, respectively. […] The percentages of apoptotic cells were analyzed using FlowJo soft.
quantity: Q2: FITC-A+ , PE-A+ Freq. of Parent (%)

| givenSmiles | quantity | recordedMeasurement |
| --- | --- | --- |
| COCCOc1cc2ncnc(Nc3cccc(-c4cn(Cc5cc(Br)cc(Br)c5)nn4)c3)c2cc1OCCOC | Q2: FITC-A+ , PE-A+ Freq. of Parent | 86.4 |
| COCCOc1cc2ncnc(Nc3cccc(-c4cn(-c5ccc(C)cc5)nn4)c3)c2cc1OCCOC | Q2: FITC-A+ , PE-A+ Freq. of Parent | 14.1 |
| COCCOc1cc2ncnc(Nc3cccc(-c4cn(-c5ccccc5OC)nn4)c3)c2cc1OCCOC | Q2: FITC-A+ , PE-A+ Freq. of Parent | 61.9 |
| CCOc1cccc(-n2cc(-c3cccc(Nc4ncnc5cc(OCCOC)c(OCCOC)cc45)c3)nn2)c1 | Q2: FITC-A+ , PE-A+ Freq. of Parent | 61.9 |

----------
- System: HeLa cells
- measurementDescription: Cell antiproliferative activity assay (CCK8)
- Type: cell-based, human
- setupConditions: Homo sapiens, HeLa, HELA 2000cells/well; supplement DataSheet2; Repeat1; read-out: IC50 Repeat1

| compound | IC50 |
| --- | --- |
| COCCOc1cc2ncnc(Nc3cccc(-c4cn(-c5cccc([N+](=O)[O-])c5)nn4)c3)c2cc1OCCOC [Compound 4m] | 3.89 µM |
| COCCOc1cc2ncnc(Nc3cccc(-c4cn(-c5ccccc5F)nn4)c3)c2cc1OCCOC [Compound 4f] | 32.4 µM |
| COCCOc1cc2ncnc(Nc3cccc(-c4cn(-c5ccccc5Br)nn4)c3)c2cc1OCCOC [Compound 4i] | 4.41 µM |
| COCCOc1cc2ncnc(Nc3cccc(-c4cn(Cc5cc(Br)cc(Br)c5)nn4)c3)c2cc1OCCOC [Compound 4d] | 7.07 µM |
| COCCOc1cc2ncnc(Nc3cccc(-c4cn(-c5ccccc5OC)nn4)c3)c2cc1OCCOC [Compound 4k] | 3.72 µM |
| COCCOc1cc2ncnc(Nc3cccc(-c4cn(Cc5ccccc5I)nn4)c3)c2cc1OCCOC [Compound 4b] | 9.72 µM |
| CCOc1cccc(-n2cc(-c3cccc(Nc4ncnc5cc(OCCOC)c(OCCOC)cc45)c3)nn2)c1 [Compound 4n] | 7.21 µM |
| COCCOc1cc2ncnc(Nc3cccc(-c4cn(-c5ccccc5Cl)nn4)c3)c2cc1OCCOC [Compound 4h] | 8.32 µM |
| COCCOc1cc2ncnc(Nc3cccc(-c4cn(-c5ccc(F)cc5)nn4)c3)c2cc1OCCOC [Compound 4g] | 8.57 µM |
| COCCOc1cc2ncnc(Nc3cccc(-c4cn(-c5ccc(C)cc5)nn4)c3)c2cc1OCCOC [Compound 4l] | 4.41 µM |
| COCCOc1cc2ncnc(Nc3cccc(-c4cn(-c5ccc(Br)cc5)nn4)c3)c2cc1OCCOC [Compound 4j] | 11.3 µM |
| COCCOc1cc2ncnc(Nc3cccc(-c4cn(Cc5ccccc5Br)nn4)c3)c2cc1OCCOC [Compound 4c] | 14.8 µM |

----------
Entries annotated with measured IC50
- Tested on: HeLa cells
- measurementDescription: Cell antiproliferative activity assay (CCK8)
- Type: cell-based, human
- setupConditions: Homo sapiens, HeLa, HELA 2000cells/well; supplement DataSheet2; mean of two repeats ± SD; read-out: IC50 mean±SD

| compound | IC50 |
| --- | --- |
| COCCOc1cc2ncnc(Nc3cccc(-c4cn(Cc5cc(Br)cc(Br)c5)nn4)c3)c2cc1OCCOC [Compound 4d] | 7.03 µM |
| COCCOc1cc2ncnc(Nc3cccc(-c4cn(Cc5ccccc5I)nn4)c3)c2cc1OCCOC [Compound 4b] | 11.5 µM |
| COCCOc1cc2ncnc(Nc3cccc(-c4cn(-c5ccc(F)cc5)nn4)c3)c2cc1OCCOC [Compound 4g] | 9.06 µM |
| COCCOc1cc2ncnc(Nc3cccc(-c4cn(-c5ccccc5Br)nn4)c3)c2cc1OCCOC [Compound 4i] | 4.36 µM |
| COCCOc1cc2ncnc(Nc3cccc(-c4cn(-c5cccc([N+](=O)[O-])c5)nn4)c3)c2cc1OCCOC [Compound 4m] | 3.79 µM |
| COCCOc1cc2ncnc(Nc3cccc(-c4cn(-c5ccccc5Cl)nn4)c3)c2cc1OCCOC [Compound 4h] | 8.86 µM |
| COCCOc1cc2ncnc(Nc3cccc(-c4cn(-c5ccccc5OC)nn4)c3)c2cc1OCCOC [Compound 4k] | 4.16 µM |

----------
- Test system: HeLa cells
- measurementDescription: Cell antiproliferative activity assay (CCK8)
- Type: cell-based, human
- setupConditions: Homo sapiens; HELA 2000cells/well; 2000 nM; Repeat2; read-out: Inhibition (%) Repeat2

| molecule | inhibition at 2 µM, % |
| --- | --- |
| COCCOc1cc2ncnc(Nc3cccc(-c4cn(Cc5ccccc5Br)nn4)c3)c2cc1OCCOC [Compound 4c] | 9.94 |
| COCCOc1cc2ncnc(Nc3cccc(-c4cn(-c5ccccc5OC)nn4)c3)c2cc1OCCOC [Compound 4k] | 10.7 |
| COCCOc1cc2ncnc(Nc3cccc(-c4cn(-c5ccccc5F)nn4)c3)c2cc1OCCOC [Compound 4f] | 2.17 |
| COCCOc1cc2ncnc(Nc3cccc(-c4cn(-c5ccccc5Cl)nn4)c3)c2cc1OCCOC [Compound 4h] | 11.2 |
| CCOc1cccc(-n2cc(-c3cccc(Nc4ncnc5cc(OCCOC)c(OCCOC)cc45)c3)nn2)c1 [Compound 4n] | 10.8 |
| COCCOc1cc2ncnc(Nc3cccc(-c4cn(-c5ccc(F)cc5)nn4)c3)c2cc1OCCOC [Compound 4g] | 17.7 |
| COCCOc1cc2ncnc(Nc3cccc(-c4cn(-c5ccccc5Br)nn4)c3)c2cc1OCCOC [Compound 4i] | 17.7 |
| COCCOc1cc2ncnc(Nc3cccc(-c4cn(-c5cccc(OC)c5)nn4)c3)c2cc1OCCOC [Compound 4e] | 5.45 |

----------
Entries annotated with measured IC50
- Tested on: HeLa cells
- measurementDescription: Cell antiproliferative activity assay (CCK8)
- Assay type: cell-based, human
- setupConditions: Homo sapiens, HeLa, HELA 2000cells/well; supplement DataSheet2; mean of two repeats ± SD; read-out: IC50 mean±SD

| givenSmiles | IC50 |
| --- | --- |
| COCCOc1cc2ncnc(Nc3cccc(-c4cn(-c5ccc(Br)cc5)nn4)c3)c2cc1OCCOC | 12.2 µM |
| COCCOc1cc2ncnc(Nc3cccc(-c4cn(-c5ccccc5F)nn4)c3)c2cc1OCCOC | 30.7 µM |
| CCOc1cccc(-n2cc(-c3cccc(Nc4ncnc5cc(OCCOC)c(OCCOC)cc45)c3)nn2)c1 | 8.21 µM |
| COCCOc1cc2ncnc(Nc3cccc(-c4cn(-c5ccc(C)cc5)nn4)c3)c2cc1OCCOC | 4.51 µM |

----------
Entries annotated with measured inhibition at 2 µM
- Tested on: HeLa cells
- measurementDescription: Cell antiproliferative activity assay (CCK8)
- Assay type: cell-based, human
- setupConditions: Homo sapiens; HELA 2000cells/well; 2000 nM; Repeat1; read-out: Inhibition (%) Repeat1
- Description: Cell antiproliferative activity was evaluated by the Cell Counting Kit-8 (CCK8, DOJINDO, Japan) assay. The cells were seeded at a density of 2,000 cells per well into 96-well microplate in 100 μl of growth medium. Cells were incubated at 37°C and 5% CO2 overnight. […] The plates were incubated at 37°C for 2 h; after that, the plates were recorded by measuring absorbance at 450 nm with the reference wavelength of 630 nm using an EnVision Multilabel Reader (PerkinElmer). […]

| givenSmiles | unitsOfMeasure | inhibition at 2 µM |
| --- | --- | --- |
| COCCOc1cc2ncnc(Nc3cccc(-c4cn(-c5ccc(C)cc5)nn4)c3)c2cc1OCCOC | % | 12.6 |
| COCCOc1cc2ncnc(Nc3cccc(-c4cn(Cc5ccccc5I)nn4)c3)c2cc1OCCOC | % | 17.6 |
| COCCOc1cc2ncnc(Nc3cccc(-c4cn(-c5ccc(Br)cc5)nn4)c3)c2cc1OCCOC | % | 4.01 |
| COCCOc1cc2ncnc(Nc3cccc(-c4cn(-c5ccccc5OC)nn4)c3)c2cc1OCCOC | % | 22.3 |
| COCCOc1cc2ncnc(Nc3cccc(-c4cn(-c5cccc(OC)c5)nn4)c3)c2cc1OCCOC | % | 14.1 |
| COCCOc1cc2ncnc(Nc3cccc(-c4cn(-c5ccc(F)cc5)nn4)c3)c2cc1OCCOC | % | 20.6 |
| COCCOc1cc2ncnc(Nc3cccc(-c4cn(Cc5cc(Br)cc(Br)c5)nn4)c3)c2cc1OCCOC | % | 17 |
| CCOc1cccc(-n2cc(-c3cccc(Nc4ncnc5cc(OCCOC)c(OCCOC)cc45)c3)nn2)c1 | % | 12.8 |
| COCCOc1cc2ncnc(Nc3cccc(-c4cn(-c5ccccc5Cl)nn4)c3)c2cc1OCCOC | % | 13.4 |
| COCCOc1cc2ncnc(Nc3cccc(-c4cn(Cc5ccccc5)nn4)c3)c2cc1OCCOC | % | 8.54 |
| COCCOc1cc2ncnc(Nc3cccc(-c4cn(Cc5ccccc5Br)nn4)c3)c2cc1OCCOC | % | 15.8 |
| COCCOc1cc2ncnc(Nc3cccc(-c4cn(-c5cccc([N+](=O)[O-])c5)nn4)c3)c2cc1OCCOC | % | 42.2 |
| COCCOc1cc2ncnc(Nc3cccc(-c4cn(-c5ccccc5Br)nn4)c3)c2cc1OCCOC | % | 15.2 |
| COCCOc1cc2ncnc(Nc3cccc(-c4cn(-c5ccccc5F)nn4)c3)c2cc1OCCOC | % | 4.77 |
